Source of measurements: ChEMBL document CHEMBL1201862

- Test system: SNB-75
- protocol: NCI tumour cell line growth inhibition, 48 h
The source made the active and inactive calls. Cut-off read from the data, not from the text of the source: active = GI50 up to about 1.1 µM and inactive = higher.
observationType: GI50

Observe how each entry below is paired with its result.
compound	measurementTarget	GI50
COC(=O)CCN1CCN(CCO)CC1C (stereo unspecified)	SNB-75	> 10 µM (inactive)
COc1ccc(-c2cc(-c3cc(F)c(Cl)cc3Cl)[nH]n2)cc1OC	SNB-75	23.3 µM (inactive)
c1ccc(C2(c3ccccc3)S/C(=C3/SC(c4ccccc4)(c4ccccc4)c4ccccc43)c3ccccc32)cc1	SNB-75	> 100 µM (inactive)

Task item: Can you share its GI50? I mean this compound: CC1=NN(c2ccc(C)cc2)C2(C1)SCC(=O)N2c1nc2ccccc2s1 (stereo unspecified)
Reply: 16.1 µM (inactive)

Task item: Let us now turn to `O=c1c(C(c2ccco2)c2c(O)oc3ccccc3c2=O)c(O)oc2ccccc12`
Reply: 28.1 µM (inactive)

Task item: Another: `Cn1c(N/N=C/c2ccccc2)nc(-c2ccc([N+](=O)[O-])cc2)c(C#N)c1=O`
Reply: 88.5 µM (inactive)

----------
- Test system: A549
- protocol: NCI tumour cell line growth inhibition, 48 h
The source made the active and inactive calls. Cut-off read from the data, not from the text of the source: active = GI50 up to about 1.1 µM and inactive = higher.
observationType: GI50

Field: example entries. Status: answers known.
molecule	measurementTarget	val
O=C(c1ccccc1)c1c(-c2ccccc2)sc2nc3ccccc3nc12	A549	> 100 µM (inactive)
CCOC(=O)C(=Cc1cccnc1C)C(=O)OCC	A549	15.6 µM (inactive)
C=C(CC(=O)Nc1ccc(C(=O)OC)o1)C(=O)OC	A549	18.2 µM (inactive)
O=C1/C(=N\O)S(=O)(=O)c2ccccc21	A549	> 100 µM (inactive)
N#Cc1c2ccccc2cn1-c1ccc(F)cc1	A549	24.6 µM (inactive)

Task item: // map COC1=CC(=O)c2c(cc3c(c2O)-c2c(OC)cc4cc5c(c(O)c4c2OC(=O)CC(C)(O)C3)C(=O)CC(C)(O)C5)C1=O (stereo unspecified) to recorded GI50 (system: A549)
Reply: 2.68 µM (inactive)

----------
Reported GI50 is given for each of the following compounds.
- System: UACC-257
- protocol: NCI tumour cell line growth inhibition, 48 h
The source made the active and inactive calls. Cut-off read from the data, not from the text of the source: active = GI50 up to about 1.1 µM and inactive = higher.

Task item: Name the reported GI50 value associated with the compound `CCOC(=O)c1ccc(-c2onc(C)c2Br)[nH]1`
Reply: 47.2 µM (inactive)

Task item: Another compound to look at: COc1cc2c(c3c1c(=O)c1ccccc1n3C)C=CC(C)(C)O2 [ACRONINE]
Reply: > 100 µM (inactive)

Task item: Also `COc1ccc([N+](=O)[O-])c2c(NCCCN(C)C)ccnc12` ?
Reply: 3.26 µM (inactive)

Task item: Would you kindly repeat that for `COc1ccc(/C=C2\CCc3cc(OC)c(OC)cc3C2=O)cc1` ?
Reply: > 10 µM (inactive)

Task item: Ok, now `CCOC(=O)C(=Cc1cccnc1C)C(=O)OCC`
Reply: 8.09 µM (inactive)

Task item: What do we get for COC1=CC(=O)c2c(cc3c(c2O)-c2c(OC)cc4cc5c(c(O)c4c2OC(=O)CC(C)(O)C3)C(=O)CC(C)(O)C5)C1=O (stereo unspecified) ?
Reply: 1.76 µM (inactive)

Task item: And what about the compound `Cc1noc2cccc(OCc3ccccc3)c12` ?
Reply: 53.8 µM (inactive)

Task item: Request: `COc1cc(CCNC2=CC(=O)c3nc[nH]c3C2=O)ccc1O`
Reply: 19.8 µM (inactive)

Task item: // same read-out, input: `COc1ccc(-c2nc3ccc([N+](=O)[O-])cc3c(=O)[nH]2)cc1`
Reply: > 96.2 µM (inactive)
